Biological target: GFP-GRER chimera (Homo sapiens, UniProt P03372)
Sequence (P03372 302-595, change not shown): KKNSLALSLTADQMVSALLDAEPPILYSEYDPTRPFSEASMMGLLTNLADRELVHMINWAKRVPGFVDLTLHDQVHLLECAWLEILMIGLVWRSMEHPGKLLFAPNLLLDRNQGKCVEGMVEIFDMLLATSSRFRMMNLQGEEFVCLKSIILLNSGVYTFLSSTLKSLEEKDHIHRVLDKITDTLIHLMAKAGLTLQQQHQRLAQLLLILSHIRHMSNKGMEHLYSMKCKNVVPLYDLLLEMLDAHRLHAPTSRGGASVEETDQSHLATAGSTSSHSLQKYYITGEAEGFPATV
Assay: cell-based
Observable: EC50 (µM)
Supply the numeric figure in µM, leaving out any unit text.

Request: Give the measured EC50 of CCCc1c(-c2ccc(O)cc2)nn(-c2ccc(O)cc2)c1-c1ccc(O)cc1 .
Response: 0.141

Where these numbers come from: paper PMC2976052
